Origin of the recorded values: patent US4593090A

# Test system: Leukemia L1210
# assay.remarks: Activity against Leukemia L1210, intraperitoneal, increase in life span of mice
# Assay type: in vivo, female mice (BDF1 family)
# experimental.setup: Mus musculus, L1210, ip, ip once a day for 5 successive days; daily dosage giving maximum increase of life span; read-out: O.D. (optimum dosage)
reported.endpoint: ED (maximum ILS) (mg/kg)
Response body: numeric value in mg/kg, unit text excluded.

Find the measured ED (maximum ILS) of CCCCCCO[C@H]1O[C@H](CN(C(=O)N(CCCl)N=O)C(C)COC)[C@@H](O)[C@H](O)[C@H]1O (stereo partly shown) with Leukemia L1210 as test system. 170

Provide measured ED (maximum ILS) on Leukemia L1210 for CC(C)CO[C@H]1O[C@H](CO)[C@@H](O)[C@H](O)[C@H]1N(CC(C)C)C(=O)N(CCCl)N=O please. 190

State, for Leukemia L1210, measured ED (maximum ILS) of the molecule listed here: CCCCOC1OC(CO)C(O)C(O)C1N(CC1CCCO1)C(=O)N(CCCl)N=O (stereo not shown) 190

Param request: ED (maximum ILS) | system Leukemia L1210 | item COCC(C)N(C[C@H]1O[C@H](OC2CCCCC2)[C@H](O)[C@@H](O)[C@@H]1O)C(=O)N(CCCl)N=O (stereo partly shown) 180
